# tgt: human complement C3b protein (human, UniProt P01024 23-667; P01024 749-1663)
# Sequence (P01024 23-667 P314L, chain 1 of 2): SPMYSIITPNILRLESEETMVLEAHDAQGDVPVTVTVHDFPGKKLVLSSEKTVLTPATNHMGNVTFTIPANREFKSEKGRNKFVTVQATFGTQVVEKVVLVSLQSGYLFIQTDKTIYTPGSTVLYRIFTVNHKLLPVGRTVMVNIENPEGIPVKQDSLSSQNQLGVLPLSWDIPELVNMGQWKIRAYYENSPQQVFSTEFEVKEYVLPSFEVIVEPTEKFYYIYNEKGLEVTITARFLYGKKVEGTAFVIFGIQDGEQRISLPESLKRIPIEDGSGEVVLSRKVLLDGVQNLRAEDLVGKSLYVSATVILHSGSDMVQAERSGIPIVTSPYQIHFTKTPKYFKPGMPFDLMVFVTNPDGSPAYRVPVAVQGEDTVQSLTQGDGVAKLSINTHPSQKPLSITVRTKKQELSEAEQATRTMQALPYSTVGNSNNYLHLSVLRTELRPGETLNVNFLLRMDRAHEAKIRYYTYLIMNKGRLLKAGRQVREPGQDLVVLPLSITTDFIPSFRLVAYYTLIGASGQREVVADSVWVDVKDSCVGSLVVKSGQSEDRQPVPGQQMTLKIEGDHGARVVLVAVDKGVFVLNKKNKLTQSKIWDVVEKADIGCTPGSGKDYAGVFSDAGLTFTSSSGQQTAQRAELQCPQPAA
# Sequence (P01024 749-1663, chain 2 of 2): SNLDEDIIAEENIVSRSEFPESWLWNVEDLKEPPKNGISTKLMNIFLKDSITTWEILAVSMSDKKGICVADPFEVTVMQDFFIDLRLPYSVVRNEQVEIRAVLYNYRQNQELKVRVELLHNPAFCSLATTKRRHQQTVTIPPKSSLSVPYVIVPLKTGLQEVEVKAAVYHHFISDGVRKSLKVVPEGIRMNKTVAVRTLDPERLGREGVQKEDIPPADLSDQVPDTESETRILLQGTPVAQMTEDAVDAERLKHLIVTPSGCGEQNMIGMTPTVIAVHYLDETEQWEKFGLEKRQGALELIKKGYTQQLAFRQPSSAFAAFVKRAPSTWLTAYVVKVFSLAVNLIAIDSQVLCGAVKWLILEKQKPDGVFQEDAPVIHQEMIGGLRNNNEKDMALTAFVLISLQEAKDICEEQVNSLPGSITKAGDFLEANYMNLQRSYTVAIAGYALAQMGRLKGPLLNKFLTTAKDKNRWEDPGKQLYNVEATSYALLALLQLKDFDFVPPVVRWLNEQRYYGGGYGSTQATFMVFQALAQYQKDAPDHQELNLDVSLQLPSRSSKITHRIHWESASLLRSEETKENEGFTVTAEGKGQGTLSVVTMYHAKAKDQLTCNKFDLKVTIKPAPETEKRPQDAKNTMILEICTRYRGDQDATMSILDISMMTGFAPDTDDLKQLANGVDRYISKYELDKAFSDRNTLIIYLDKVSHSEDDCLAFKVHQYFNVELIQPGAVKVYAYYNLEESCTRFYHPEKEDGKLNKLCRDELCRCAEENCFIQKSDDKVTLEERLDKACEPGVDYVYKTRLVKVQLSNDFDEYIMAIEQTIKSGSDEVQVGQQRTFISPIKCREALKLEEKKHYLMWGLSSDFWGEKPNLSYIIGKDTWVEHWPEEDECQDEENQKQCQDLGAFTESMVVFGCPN
# run description: cell-based or functional assay
measurement kind: inhibition of C3a and C5a generation during hemolysis, IC50

Please review the following examples before continuing.
>>> meas_value("MOR09609 IgG (antibody, V domains shown, Germlined human IgG1 with leucines 234 and 235 changed to alanines, kappa; also called antibody 9609) VH: EVQLVQSGAEVKKPGSSVKVSCKASGGTFSSYTFSWVRQAPGQGLEWMGNILPIFGDANYAQKFQGRVTITADESTSTAYMELSSLRSEDTAVYYCARNKGAFYYMSTYPSLDVWGQGTLVTVSS VL: DIQMTQSPSSLSASVGDRVTITCRASQNINYYLNWYQQKPGKAPKLLIYDAFSLQSGVPSRFSGSGSGTDFTLTISSLQPEDFATYYCQQSWSVPPFTFGQGTKVEIKR")
"≤ 50 nM"
>>> meas_value("MOR09611 IgG (antibody, V domains shown, Germlined human IgG1 with leucines 234 and 235 changed to alanines, kappa; also called antibody 9611) VH: EVQLVESGGGLVQPGGSLRLSCAASGFTFSSYWMTWVRQAPGKGLEWVSSIKIKPDGYAASVKGRFTISRDNSKNTLYLQMNSLRAEDTAVYYCARLFYQYFARMDYWGQGTLVTVSS VL: DIQMTQSPSSLSASVGDRVTITCRASQDISNYLNWYQQKPGKAPKLLIYAASNLQSGVPSRFSGSGSGTDFTLTISSLQPEDFATYYCQQHDTFRPTFGQGTKVEIKR")
"≤ 50 nM"

For the next question, use this binder.
Query block: Look up inhibition of C3a and C5a generation during hemolysis, IC50 for this binder: MOR09556 IgG (antibody, V domains shown, Germlined human IgG1 with leucines 234 and 235 changed to alanines, kappa; also called antibody 9556) VH: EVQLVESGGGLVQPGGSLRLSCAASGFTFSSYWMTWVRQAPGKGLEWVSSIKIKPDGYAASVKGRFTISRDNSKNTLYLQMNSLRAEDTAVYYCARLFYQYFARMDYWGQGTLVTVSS VL: DIQMTQSPSSLSASVGDRVTITCRASQDISNYLNWYQQKPGKAPKLLIYAASNLQSGVPSRFSGSGSGTDFTLTISSLQPEDFATYYCQQYDSYSPTFGQGTKVEIKR
Result block: ≤ 50 nM
